Where do these numbers come from? They come from PubChem BioAssay (NCI).

# protocol: NCI Yeast Anticancer Drug Screen. Data for the cln2 rad14 strain (AID 165)
# experimental_setup: S. cerevisiae cln2 rad14 strain, at 50.0 µM (retest, dose inferred, filed as 5.0)
Compounds without any hit were thinned out: in the full panel of roughly 79,000, 15% have a hit. The source made the active and inactive calls. No stated cut-off is given here; in the data, active means growth inhibition above about 70%; inactive means the rest. Where a SMILES comes first, the peptide text is derived from it. [ ]: non-standard residue; d: D form. The star is where a group is joined. Phe(4-NO2) = N[CH](Cc1ccc([N+](=O)[O-])cc1)C(=O)O; Boc = CC(C)(C)OC(=O)*
Outcomes: active, inactive

{"compound": "OC(CBr)c1c(Br)ccc2ccccc12 (configuration not stated)", "discrete_label": "inactive"}
{"compound": "COc1ccc(Cl)c(-c2cc(OC)c(N=N/C(=N/Nc3ccc([N+](=O)[O-])cc3)c3ccc([N+](=O)[O-])cc3)cc2Cl)c1", "discrete_label": "inactive"}
{"compound": "O/N=C(/CCc1ccccc1)c1ccccc1", "discrete_label": "inactive"}
{"compound": "S=C(CSc1ccccc1)Nc1cccc2ccccc12", "discrete_label": "active"}
{"compound": "O=C(O)Cc1ccc2c(c1O)C(=O)c1ccccc1C2=O", "discrete_label": "inactive"}
{"compound": "Oc1cc(Br)ccc1/C=N/Nc1ccccn1", "discrete_label": "inactive"}
{"compound": "CC(=O)O[C@@H]1[C@@H](O)[C@H]2O[C@@H]3C=C(C)CC[C@]3(CO)[C@]1(C)[C@@]21CO1", "discrete_label": "active"}
{"compound": "CC1CCC(C(O)(C(=O)O)C2CCC(C)CC2)CC1 (configuration not stated)", "discrete_label": "inactive"}
{"compound": "Cc1ccc(NC(=O)COC(=O)c2cccc3c(=O)c4ccccc4[nH]c23)cc1", "discrete_label": "inactive"}
{"compound": "CCOC(=O)C[n+]1c(C)sc2ccccc21", "discrete_label": "inactive"}
{"compound": "Cc1cccc(C)c1O", "discrete_label": "active"}
{"compound": "O=[N+]([O-])c1cc(Cl)ccc1S(=O)(=O)c1ccccc1", "discrete_label": "inactive"}
{"compound": "O=C(O)/C=C/c1ccc(Cl)cc1Cl", "discrete_label": "inactive"}
{"compound": "CCOC(=O)c1cn(CC)c2cc(-n3cccc3)ccc2c1=O", "discrete_label": "inactive"}
{"compound": "CCNc1ncnc2c1ncn2Cc1ccco1", "discrete_label": "inactive"}
{"compound": "[N-]=[N+]=CC(=O)CCC(NC(=O)OCc1ccccc1)C(=O)OCc1ccccc1 (configuration not stated)", "discrete_label": "active"}
{"compound": "CCOc1ccc2c(c1)[n+]([O-])c(S(=O)(=O)c1ccc(C)cc1)c(N)[n+]2[O-]", "discrete_label": "inactive"}
{"compound": "COc1cc(/C=C2\\S/C(=N/Nc3nc(-c4ccc(Br)cc4)cs3)NC2=O)cc(OC)c1OC", "discrete_label": "active"}
{"compound": "CCCCCCC[CH2][Sn]([CH2]CCCCCCC)([O]c1cccc2cccnc12)[O]c1cccc2cccnc12", "discrete_label": "inactive"}
{"compound": "Cc1cc(Nc2ccc(O)c(CN3CCN(Cc4cc(Nc5cc(C)nc(N)n5)ccc4O)CC3)c2)nc(N)n1", "discrete_label": "active"}
{"compound": "Cc1ccc(C2C(O)=C(c3ccccc3)Sc3ccc(C)cc32)cc1 (configuration not stated)", "discrete_label": "inactive"}
{"compound": "CCN(CC)CC(O)c1ccc(/C=C/c2ccc(Cl)cc2)cc1 (configuration not stated)", "discrete_label": "active"}
{"compound": "CCC(/C=C/c1ccccc1)=N\\Nc1ccccc1", "discrete_label": "active"}
{"compound": "CC[C@@H]1O[C@@H]([C@@H]2CC[C@](O)([C@]3(C)CC[C@@H]([C@@H](C)[C@@]4(O)CC[C@H](C)[C@@H](C[C@@]5(O)O[C@@H]([C@@H](C)[C@H](O)C[C@H]6CC[C@H](C)[C@@H]([C@@H](C)C(=O)O)O6)CC[C@@H]5C)O4)O3)O2)CC[C@@]1(C)O", "discrete_label": "active"}
{"compound": "CCC(c1ccc(OC)cc1)C(CC)c1ccc(O)c(CN(C)C)c1 (configuration not stated)", "discrete_label": "inactive"}
{"compound": "CCOc1ccc2c(c1)CCC1C2CCC2(C)CC(O)CC12 (configuration not stated)", "discrete_label": "active"}
{"compound": "Nc1ccc2c(c1)[nH]c(=O)c1c(Cl)cccc12", "discrete_label": "inactive"}
{"compound": "CCc1nc2c(O)ccc(O)c2nc1C", "discrete_label": "inactive"}
{"compound": "CN1/C(=C/C=C/C(I)=C/C=C/C2=[N+](C)c3ccccc3C2(C)C)C(C)(C)c2ccccc21", "discrete_label": "active"}
{"compound": "CC(C)(C)c1ccc(O)c(O)c1", "discrete_label": "inactive"}
{"compound": "OCCc1ccc(-n2cnc3c(Nc4ccc(Cl)cc4)ncnc32)cc1", "discrete_label": "active"}
{"compound": "O=C1c2cc(Br)ccc2NC1(c1c[nH]c2ccccc12)c1c[nH]c2ccccc12", "discrete_label": "active"}
{"compound": "CCCCN(CCO)CCNc1ccc(C)c2sc3ccccc3c(=O)c12", "discrete_label": "active"}
{"compound": "N#CC(C(=O)C(=O)Nc1ccc(Cl)c(Cl)c1)c1c(Cl)cccc1Cl (configuration not stated)", "discrete_label": "inactive"}
{"compound": "CNC(=O)CCC(NC(=O)OC(C)(C)C)C(=O)NC(Cc1ccc([N+](=O)[O-])cc1)C(=O)NCC(=O)NC (configuration not stated) (Boc-Glu(NHMe)-[Phe(4-NO2)]-Gly-NHMe; configuration not given here)", "discrete_label": "inactive"}
{"compound": "NC(=O)Nc1cc(=O)[nH]c(=S)[nH]1", "discrete_label": "inactive"}
{"compound": "CC(C)(C)C1=CC(N2CCCCC2)(C(C)(C)C)C=C(C(C)(C)C)C1=O", "discrete_label": "inactive"}
